Recorded values, source ChEMBL document CHEMBL4130551.

// reported Emax at 100 µM for each item listed
- System: Thoracic aorta
- experimentDescription: Vasorelaxant activity in CD-1 mouse thoracic aorta rings assessed as inhibition of L-phenylephrine-induced contraction at 100 uM relative to control
- Type: functional
- measurementParameters: CD-1, Thoracic aorta
Write the number in % without appending the unit.

Memo: O=c1sn(-c2ccccc2)c(=O)n1-c1ccccc1 , reported Emax at 100 µM: 99.7

The molecule listed as O=c1sn(-c2ccc(F)cc2)c(=O)n1-c1ccccc1 has a reported Emax at 100 µM of 94.3

Emax at 100 µM recorded for this molecule, COc1ccc(-n2sc(=O)n(-c3ccc(C)cc3)c2=O)cc1 , is 99

Emax at 100 µM reading for COc1ccc(-n2sc(=O)n(-c3ccc(OC)cc3)c2=O)cc1 : 95

Summary for this molecule, Cc1ccc(-n2sc(=O)n(-c3ccccc3)c2=O)cc1 : Emax at 100 µM is 94.5

Form: molecule = COc1ccc(-n2sc(=O)n(C3CCCCC3)c2=O)cc1 ; Emax at 100 µM = 97.7

Entry COc1ccc(-n2sc(=O)n(-c3ccc(Cl)cc3)c2=O)cc1 — recorded Emax at 100 µM = 98.6

Summary for this molecule, COc1ccc(-n2sc(=O)n(-c3ccccc3)c2=O)cc1 : Emax at 100 µM is 100
